# Tested target: complement C3b, site-specifically biotinylated (human, UniProt P01024 23-667; P01024 749-1663, biotin, site-specific (site not given))
# Method: AlphaScreen or HTRF
This listing pairs binders with measured Kd.
Please respond with the number in µM and leave the unit unwritten.

>>> test_value("SCIN-A.R42A (natural protein) STSLPTSNEYQNEKLANELKSLLDELNVNELATGSLNTYYKATIKISGQKAMYALKSKDFKKMSEAKYQLQKIYNEIDEALKSKY")
14
>>> test_value("SCIN-A.R42A.Q49A (natural protein) STSLPTSNEYQNEKLANELKSLLDELNVNELATGSLNTYYKATIKISGAKAMYALKSKDFKKMSEAKYQLQKIYNEIDEALKSKY")
14

Continue with the binder presented below.
Query :: Note Kd for the binder shown: SCIN-A.Q49A (natural protein) STSLPTSNEYQNEKLANELKSLLDELNVNELATGSLNTYYKRTIKISGAKAMYALKSKDFKKMSEAKYQLQKIYNEIDEALKSKY
Result :: 0.12
